Target system: T1, recombinant human Siglec-15-his protein (Bonopusbio) (human, UniProt Q6ZMC9 20-263)
T1 construct: Bought (CW37-50 ug in the ELISA; the SPR paragraph prints CW70-50 ug); whole entry named; also called recombinant human Siglec-15 protein
T1 sequence: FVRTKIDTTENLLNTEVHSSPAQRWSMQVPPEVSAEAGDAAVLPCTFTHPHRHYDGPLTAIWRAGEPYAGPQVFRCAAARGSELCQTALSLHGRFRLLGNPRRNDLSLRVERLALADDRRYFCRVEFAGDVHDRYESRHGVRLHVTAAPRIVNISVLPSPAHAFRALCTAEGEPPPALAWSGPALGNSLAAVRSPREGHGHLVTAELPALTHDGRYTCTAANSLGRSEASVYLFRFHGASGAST
Experiment description: SPR (Biacore T200), antibody on CM5 chip, Siglec-15-his as analyte
Reported property: pKd
Answers are plain numbers, as −log10 of the molar value.

The following binders have reported results that may help.
Binder	Reported property	Meas value
S15B1 (antibody, V domains shown, Mouse hybridoma monoclonal antibody ('parental mouse S15B1'); also called clone S15B1; S15B1-VH + VL (Parental)) VH: QVQLQQSGPELVKPGASVKISCKASGYAFSSSWMNWVKQRPGKGLEWIGRIYPGHGETNYNGKFKDKATVTADKSSSTTYMQLSSLTSEDSAVYFCARVDNSDPYYFDYWGQGTTLTVSS VL: DIVLTQSPASLAVSLGQRATISCRASKSVSTSGYSYMHWYQQKPGQPPKLLIYLASNLESGVPARFSGSGSGTDFTLNIHPVEEEDAATYYCQHGRELPFTFGSGTKLEIK	pKd	10.28
S15B1-VH1 + VL1 (antibody, V domains shown, Humanized S15B1; also called humanized S15B1 VH1+VL1; huS15B1) VH: QVQLVQSGAEVKKPGASVKVSCKASGYAFSSSWMNWVRQAPGQGLEWIGRIYPGHGETNYNGKFKDRVTMTADTSTSTVYMELSSLRSEDTAVYFCARVDNSDPYYFDYWGQGTTVTVSS VL: DIVLTQSPASLAVSPGQRATITCRASKSVSTSGYSYMHWYQQKPGQPPKLLIYLASNLESGVPARFSGSGSGTDFTLTINPVEAEDTANYYCQHGRELPFTFGGGTKLEIK	pKd	9.87
S15B1-VH3 + VL2 (antibody, V domains shown, Humanized S15B1; also called humanized S15B1 VH3+VL2; huS15B1) VH: QVQLVQSGAEVKKPGASVKVSCKASGYAFSSSWMNWVKQAPGQGLEWIGRIYPGHGETNYNGKFKDRATMTADTSTSTVYMELSSLRSEDTAVYFCARVDNSDPYYFDYWGQGTTVTVSS VL: DIVLTQSPASLAVSPGQRATITCRASKSVSTSGYSYMHWYQQKPGQPPKLLIYLASNLESGVPARFSGSGSGTDFTLTINPVEAEDTATYYCQHGRELPFTFGGGTKLEIK	pKd	10.19
S15B1-VH2 + VL2 (antibody, V domains shown, Humanized S15B1; also called humanized S15B1 VH2+VL2; huS15B1) VH: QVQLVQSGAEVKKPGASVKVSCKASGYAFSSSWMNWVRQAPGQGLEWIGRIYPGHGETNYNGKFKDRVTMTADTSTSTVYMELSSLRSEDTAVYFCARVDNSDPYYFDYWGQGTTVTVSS VL: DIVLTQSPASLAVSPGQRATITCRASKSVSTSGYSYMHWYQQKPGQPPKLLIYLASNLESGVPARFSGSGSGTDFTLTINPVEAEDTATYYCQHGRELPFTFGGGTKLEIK	pKd	10.02

Batch of 3 binders: report pKd for each.
1. S15B1-VH3 + VL1 (antibody, V domains shown, Humanized S15B1; also called humanized S15B1 VH3+VL1; huS15B1) VH: QVQLVQSGAEVKKPGASVKVSCKASGYAFSSSWMNWVKQAPGQGLEWIGRIYPGHGETNYNGKFKDRATMTADTSTSTVYMELSSLRSEDTAVYFCARVDNSDPYYFDYWGQGTTVTVSS VL: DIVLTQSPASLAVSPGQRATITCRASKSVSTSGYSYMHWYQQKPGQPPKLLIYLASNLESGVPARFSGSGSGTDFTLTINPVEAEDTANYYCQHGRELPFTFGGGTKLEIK
2. S15B1-VH4 + VL1 (antibody, V domains shown, Humanized S15B1; also called humanized S15B1 VH4+VL1; huS15B1) VH: QVQLVQSGAEVKKPGASVKVSCKASGYAFSSSWMNWVKQAPGQGLEWIGRIYPGHGETNYNGKFKDRATMTADKSTSTVYMELSSLRSEDTAVYFCARVDNSDPYYFDYWGQGTTVTVSS VL: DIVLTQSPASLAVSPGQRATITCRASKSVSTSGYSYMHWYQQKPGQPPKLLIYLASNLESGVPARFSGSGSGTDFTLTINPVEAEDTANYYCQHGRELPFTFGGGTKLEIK
3. S15B1-VH2 + VL1 (antibody, V domains shown, Humanized S15B1; also called humanized S15B1 VH2+VL1; huS15B1) VH: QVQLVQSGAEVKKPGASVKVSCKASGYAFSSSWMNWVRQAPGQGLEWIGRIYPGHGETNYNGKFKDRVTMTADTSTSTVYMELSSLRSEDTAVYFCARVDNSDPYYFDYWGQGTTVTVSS VL: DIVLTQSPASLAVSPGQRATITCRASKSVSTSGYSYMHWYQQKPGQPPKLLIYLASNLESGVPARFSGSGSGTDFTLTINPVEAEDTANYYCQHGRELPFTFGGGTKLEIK

10.16
10.03
9.90

Origin of values: patent US20250361297A1
